Assign efficacy to each entry below.
test system: HCT116; test: efficacy (fitted maximal change in viability relative to DMSO control); higher = less cytotoxic (negative = loss of viability); settings: 48 h
Where a name gives a salt, the structure may show the parent alone.

Some molecules with recorded efficacy:
In: Missing value: efficacy, HCT116, entry `COc1cc[nH]c2ncc(C(=O)C(=O)N3CCN(C(=O)c4ccccc4)C[C@H]3C)c1-2` . Fill in?
Out: -10.7%

In: Observed efficacy on HCT116 for Cn1cc(-c2ccncc2)c(-c2ccc(OCc3ccc4ccccc4n3)cc2)n1 [MP-10] , please.
Out: -72.4%

In: Request - read-out efficacy | tested on HCT116 | molecule CCC[C@H](NC(=O)/C(C#N)=C/c1cccc(Br)n1)c1ccccc1 [Degrasyn]
Out: -104%

In: Test system HCT116; read-out efficacy; what value for Cc1cnc(C(=O)O)c[n+]1[O-] [Acipimox] ?
Out: -8.25%

In: Param readout= efficacy; system= HCT116; entry= `CCN(CC)CCCCNc1ncc2c(n1)N(C)C(=O)N(c1c(Cl)c(OC)cc(OC)c1Cl)C2` ; returns value.
Out: -80.5%

# batch size: 8; output efficacy per entry
1. CONC(=O)c1ccccc1Nc1cc(Nc2cc(C)nn2C(C)C)ncc1Cl
2. CN1CCN(C(=O)[C@H]2[C@@H](C(=O)O)[C@H]3CC[C@@H]2O3)CC1 [EMPM]
3. COCCOc1ccc(N2CCN(CCn3ncc4c3nc(N)n3nc(-c5ccco5)nc43)CC2)cc1 [Preladenant]
4. Clc1ccccc1C(c1ccccc1)(c1ccccc1)n1ccnc1 [Clotrimazole]
5. C=CC(=O)N[C@H]1CN(c2nc(Nc3cn(C)nc3OC)c3ncn(C)c3n2)C[C@@H]1F
6. [O-]C(=O)C1=C(C(=C(Cl)C(=C1Cl)Cl)Cl)C/2=C/3\C=C(I)/C(=O)/C(=C3OC4=C2C=C(I)C(=C4I)[O-])I [Rose Bengal disodium]
7. C[C@H]1[C@H](O)O[C@@H]2O[C@@]3(C)CC[C@H]4[C@H](C)CC[C@@H]1[C@@]24OO3 [Artenimol]
8. CC1=NN(c2ccc(C)c(C)c2)C(=O)/C1=N/Nc1cccc(-c2cccc(C(=O)O)c2)c1O [Eltrombopag olamine]

Out:
["-40.7%", "-12%", "-16%", "-81.6%", "-68%", "-47%", "-78.7%", "-17.2%"]

Look at each molecule and report its efficacy.
1. CC(C)Oc1ccc(C(=O)N[C@H](CNC(=O)CN(C)C)Cc2ccc(-c3cn4cccc([C@H](C)O)c4n3)cc2)cc1Cl
2. C[C@@H]1[C@H]\2[C@H](O)[C@H]3[C@H](N(C)C)\C(=C(C(N)=O)/C(=O)[C@@]3(O)\C(=C2C(=O)C4=C(O)C=CC=C14)O)O [Doxycycline]
3. O=C([O-])C(O)Cc1ccc(O)c(O)c1 (stereo unspecified) [Sodium Danshensu]
4. Cc1ncc(-c2ccnc(Nc3ccc([S+](C)(=O)[O-])cc3)n2)n1C(C)C [AZD-5438]

Out:
1. -127%
2. 12.1%
3. -9.88%
4. -62.2%

Respectfully, I request efficacy for each entry included below.
1. CCNCCc1ccc(CN(CC)c2cc(OC)ccc2[C@@H]2CCc3cc(O)ccc3C2)cc1 [Elacestrant]
2. C[C@H](CCC(=O)O)[C@H]1CC[C@H]2[C@@H]3[C@H](O)C[C@@H]4C[C@H](O)CC[C@]4(C)[C@H]3CC[C@]12C [Chenodeoxycholic acid]
3. C[C@](N)(Cc1ccc(O)c(O)c1)C(=O)O [Methyldopa]
4. CNC(=O)[C@H]1O[C@@H](n2cnc3c(NCc4cccc(I)c4)nc(Cl)nc32)[C@H](O)[C@@H]1O [Namodenoson]
5. COc1ccc(C(=O)CC(=O)c2ccc(C(C)(C)C)cc2)cc1 [Avobenzone]
6. COc1ccccc1[C@H](c1cccc2ccccc12)[C@@](C)(C#N)C(=O)N1CCC(c2cccc(C(F)(F)F)c2)CC1
7. C[C@H](NC(=O)/C(C#N)=C/c1cccc(Br)n1)c1ccccc1 [WP-1066]

Out:
1. -96.5%
2. -16%
3. -16.9%
4. -94.8%
5. -43.1%
6. -39.8%
7. -83.5%

Fill in efficacy for each of the 4 molecules listed.
1. COc1cc2c(NC3CCN(C)CC3)nc(N3CCCN(C)CC3)nc2cc1OCCCN(C)C [UNC-0224]
2. CC(C)(O)[C@H]1CC[C@H](Nc2ccc3ncc(-c4cccc(C(F)(F)F)c4)n3n2)CC1 [TP-3654]
3. CN(CC1=CC2=C(N\C(=N/C2=O)C)C=C1)C3=CC=C(S3)C(=O)N[C@@H](CCC(O)=O)C(O)=O [Raltitrexed]
4. O=C(Nc1ccccc1-c1cn2c(CN3CCNCC3)csc2n1)c1cnc2ccccc2n1 [SRT-1720]

Out:
1. -57.9%
2. -43.7%
3. -59%
4. -83.6%

Batch: efficacy for all items listed.
1. CCCNCC(O)COc1ccccc1C(=O)CCc1ccccc1 (stereo unspecified) [Propafenone hydrochloride]
2. CCCCCCCCCCCCc1ccc([S+](=O)([O-])Nc2nncs2)cc1 [PHT-427]
3. O=C1\C=C(/OC2=C1C=CC=C2C3=CC=CC=C3)N4CCOCC4

Out:
["-43.8%", "-13.9%", "-24.3%"]

====

tested on: HCT116; experiment: efficacy (fitted maximal change in viability relative to DMSO control); higher = less cytotoxic (negative = loss of viability); details: 48 h
Could you please report measured efficacy for the items listed next?
Give bare numbers, in %.

// known answers, use as guide
In: Item `C[C@H](c1ccc(F)cc1CCCC(=O)O)N(c1cc(F)ccc1F)[S+](=O)([O-])c1ccc(Cl)cc1` has what recorded efficacy?
Out: -30.3

In: Any idea what efficacy was measured for CC#C[C@@H](CC(=O)O)c1ccc(OCc2cccc(-c3ccc(C(F)(F)F)cc3)c2)cc1 [AMG-837] ?
Out: -40.8

In: Bench note: what efficacy did COc1cc2ncnc(Nc3cccc(Cl)c3)c2cc1OC [AG-1478] show?
Out: -91.8

In: Which efficacy is reported for this compound? CC1=C(C)C2=C(S1)[N]3C(=NN=C3[C@H](CC(=O)OC(C)(C)C)/N=C2/C4=CC=C(Cl)C=C4)C [JQ1]
Out: -81.9

In: Item COC(=O)[C@@H]1[C@H]2C[C@H]3c4[nH]c5ccccc5c4CCN3C[C@@H]2CC[C@@H]1O [Yohimbine] has what recorded efficacy?
Out: -8.81

In: Given the entry CN(C)CCN(C)CCc1ccc(Cl)c(Cl)c1 [BD-1047] , report its measured efficacy.
Out: -29.2

# map each compound to its efficacy
1. O=c1cc(O)c(Cl)c[nH]1 [Gimeracil]
2. O=C1NC(=O)[C@@H](c2c[nH]c3ccccc23)[C@H]1c1cn2c3c(cccc13)CCC2 [Tivantinib (ARQ 197)]

Out:
[-6.4, -62.9]

====

Please provide measured efficacy for the entries that follow.
tested on: HCT116; assay: efficacy (fitted maximal change in viability relative to DMSO control); higher = less cytotoxic (negative = loss of viability); conditions: 48 h
Give bare numbers, in %.

In: Reported efficacy, compound `CCn1c(-c2nonc2N)nc2cnc(Oc3cccc(NC(=O)c4ccc(OCCN5CCOCC5)cc4)c3)cc21` : ____
Out: -79.2

In: Reported efficacy, compound Cc1noc(-c2ccc(CSCCC(=O)O)cc2)c1NC(=O)OC(C)c1ccccc1Cl (centres undefined) : ____
Out: -36.3

In: Look up efficacy for this compound: `CCc1ccc(OCc2ccccc2C(=O)Nc2ccc3nc(C)cc(N)c3c2)cc1`
Out: -94.1

Read the next record carefully.
In: Reported efficacy, compound Cc1ncc([N+](=O)[O-])n1CC(C)O (centres undefined) : ____
Out: -13.5

====

Please respond with reported AC50 cell viability for every item in the list.
tested on: HCT116; assay: AC50 cell viability (CellTiter-Glo); higher = less potent; details: 48 h
Counter-ions that a name gives are not always drawn.
Numbers only, in µM.

Reference set, count: 8
In: Dear colleague, I am looking for the recorded AC50 cell viability of the following compound: `CN(C)c1ccc2cc(C(=O)N[C@@H](CCCNC(=N)CCl)C(=O)NCc3ccccc3)ccc2c1`
Out: 20.9

In: Record request: AC50 cell viability value, item CC[C@@]1(O)C(=O)OCC/2=C1/C=C3\N(CC4=CC5=CC(=CC=C5N=C34)O)C2=O [10-hydroxycamptothecin]
Out: 0.105

In: Return reported AC50 cell viability; argument: CCCCCCC(C)(C)C1=CC2=C([C@H]3CC(=C/CC3C(C)(C)O2)\CO)C(=C1)O (stereo not given in full)
Out: 8.33

In: I am curious: what AC50 cell viability value has been reported for `C[S+](=O)([O-])CCNCc1ccc(-c2ccc3ncnc(Nc4ccc(OCc5cccc(F)c5)c(Cl)c4)c3c2)o1` ?
Out: 16.6

In: Return reported AC50 cell viability; argument: `C[C@H]1CN(C[C@@H](C)O1)CC(=O)NC2=CC=C3SC4=C(CC3=C2)C=CC=C4\C5=C\C(=O)\C=C(/O5)N6CCOCC6`
Out: 5.9

In: What does the record list as AC50 cell viability for `CCN(CC)CCOC1=CC=C(NC2=NC=C3\C=C(/C(=O)N(C)C3=N2)C4=C(Cl)C=CC=C4Cl)C=C1` ?
Out: 1.18

In: Quick one: AC50 cell viability for `Nc1nc(Cl)nc2c1ncn2[C@H]1C[C@H](O)[C@@H](CO)O1` ?
Out: 0.295

In: For the compound `O=C(NO)c1cnc(NC2(c3cccc(F)c3)CCCCC2)nc1` , what AC50 cell viability is on record?
Out: 16.6

Required: AC50 cell viability, one value per compound below.
1. Cn1ncc(Cl)c1-c1cc(C(=O)NC(CN)Cc2ccc(F)c(F)c2)oc1Cl (stereo not given)
2. C=CC(=O)N1CCC(C2CCNc3c(C(N)=O)c(-c4ccc(Oc5ccccc5)cc4)nn32)CC1 (stereo not given)
3. Cc1ccc(C(=O)OCc2ccc([C@@H](CN)C(=O)Nc3ccc4cnccc4c3)cc2)c(C)c1
4. C/C(=C\c1csc(C)n1)[C@@H]1C[C@@H]2O[C@]2(C)CCC[C@H](C)[C@H](O)[C@@H](C)C(=O)C(C)(C)[C@@H](O)CC(=O)N1 [Ixabepilone]
5. CCN(CC)Cc1ccc2cc(COC(=O)Nc3ccc(C(=O)NO)cc3)ccc2c1 [Givinostat hydrochloride]
6. C[C@@H]1CN[C@H]2[C@@H](C)[C@@]3(CC[C@H]4[C@@H]5CC[C@@H]6C[C@@H](CC[C@]6(C)[C@H]5C\C4=C(C)\C3)N[S+](C)([O-])=O)O[C@@H]2C1
7. CCc1nc(N)nc(N)c1-c1ccc(Cl)cc1

Out:
1. 13.2
2. 18.6
3. 8.11
4. 0.0833
5. 0.263
6. 14.8
7. 3.32
